# testedSystem: Testis-specific serine/threonine-protein kinase 1 (Homo sapiens) (UniProt Q9BXA7);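 further: reported value is the mean inhibition, from the GSK PKIS kinase screening panel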
# Sequence (Q9BXA7 whole entry): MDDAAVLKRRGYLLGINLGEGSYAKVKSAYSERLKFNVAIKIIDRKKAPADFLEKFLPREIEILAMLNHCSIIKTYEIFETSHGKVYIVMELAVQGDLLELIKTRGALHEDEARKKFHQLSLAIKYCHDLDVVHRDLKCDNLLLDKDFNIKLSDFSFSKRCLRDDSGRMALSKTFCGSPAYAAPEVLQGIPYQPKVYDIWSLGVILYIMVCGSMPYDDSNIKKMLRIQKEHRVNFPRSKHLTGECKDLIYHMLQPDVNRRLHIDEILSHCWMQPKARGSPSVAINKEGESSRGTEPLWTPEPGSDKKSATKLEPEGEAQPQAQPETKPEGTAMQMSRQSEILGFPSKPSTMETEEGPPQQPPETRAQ
# experimentalContext: at 1 µM
outcomeMeasure: inhibition (%)
One number for each entry, in %.

Completed entries (count: 2):
{"compound": "Cc1cc(-c2ccco2)cc(C)c1/C=C/c1cncc(-c2nn[nH]n2)c1", "resultUnits": "%", "inhibition": 2.37}
{"compound": "NS(=O)(=O)c1ccc(N/C=C2\\C(=O)Nc3ccc4ncsc4c32)cc1", "resultUnits": "%", "inhibition": 19.4}

Count: 5. Required value per item: inhibition.
1. NC(=O)c1sc(-n2cnc3cc(C(F)(F)F)ccc32)cc1OCc1ccccc1Br
2. CCn1c(-c2nonc2N)nc2c(C#CC(C)(C)O)nc(O[C@@H](CN)c3ccccc3)cc21
3. CCn1c(-c2nonc2N)nc2c(C#CC(C)(C)O)ncc(OC[C@@H]3CCCN3)c21
4. NS(=O)(=O)c1ccc(-c2ccc3c(NC(=O)C4CC4)n[nH]c3c2)cc1
5. COc1cccc(-n2ncc3c(N/N=C/c4ccncc4)ncnc32)c1

Output line:
[3.05, 95.6, 70.4, -0.04, 5.05]

Count: 3. Required value per item: inhibition.
1. COc1cc2c(cc1Nc1nc(Nc3ccsc3C(N)=O)c3cc[nH]c3n1)N(C(=O)CN(C)C)CCC2
2. CCn1c(-c2nonc2N)nc2c(C#CCN)ncc(OCCCN)c21
3. COc1cccc(COc2cc(-n3cnc4ccccc43)sc2C(N)=O)c1

Output line:
1. 95.5
2. 11.3
3. -0.86

Input line: Lab note: need inhibition for COc1cc(C=NNc2ncnc3c2cnn3Cc2ccccc2)ccc1O on Testis-specific serine/threonine-protein kinase 1 (Homo sapiens) (UniProt Q9BXA7), anyone have it?
Output line: -2.62

----------
# testedSystem: Protein kinase C beta type (Homo sapiens);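 further: PKC-beta1 splice variant of the enzyme, figure reported as mean inhibition, measured within the GSK PKIS kinase profiling panel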
# experimentalContext: at 0.1 µM
# Description: GSK_PKIS: PKC-beta1 (splice variant) mean inhibition at 0.1 uM [Nanosyn]
What inhibition was measured for each of the following?
Give bare numbers, in %.

Completed entries (count: 6):
{"compound": "CCn1c(-c2nonc2N)nc2c(C#CC(C)(C)O)ncc(OC[C@@H]3CCCN3)c21", "recordedMeasurement": 30.1}
{"compound": "CCn1c(-c2nonc2N)nc2c(C#CCN)ncc(OCCCN)c21", "recordedMeasurement": 14.7}
{"compound": "COc1cccc(-n2ncc3c(N/N=C/c4ccncc4)ncnc32)c1", "recordedMeasurement": 1.63}
{"compound": "COc1cc(C=NNc2ncnc3c2cnn3Cc2ccccc2)ccc1O", "recordedMeasurement": 0.36}
{"compound": "NC(=O)c1sc(-n2cnc3cc(C(F)(F)F)ccc32)cc1OCc1ccccc1Br", "recordedMeasurement": 0.86}
{"compound": "Cc1cc(-c2ccco2)cc(C)c1/C=C/c1cncc(-c2nn[nH]n2)c1", "recordedMeasurement": -0.49}

Pending compound:
Input line: Name the recorded inhibition for NS(=O)(=O)c1ccc(N/C=C2\C(=O)Nc3ccc4ncsc4c32)cc1 .
Output line: -0.49

----------
What inhibition was measured for each of the following?
# testedSystem: Rho-associated protein kinase 1 (Homo sapiens) (UniProt Q13464);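 further: values are mean percent inhibition of ROCK1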
# Sequence (Q13464 2-1354 limits assumed): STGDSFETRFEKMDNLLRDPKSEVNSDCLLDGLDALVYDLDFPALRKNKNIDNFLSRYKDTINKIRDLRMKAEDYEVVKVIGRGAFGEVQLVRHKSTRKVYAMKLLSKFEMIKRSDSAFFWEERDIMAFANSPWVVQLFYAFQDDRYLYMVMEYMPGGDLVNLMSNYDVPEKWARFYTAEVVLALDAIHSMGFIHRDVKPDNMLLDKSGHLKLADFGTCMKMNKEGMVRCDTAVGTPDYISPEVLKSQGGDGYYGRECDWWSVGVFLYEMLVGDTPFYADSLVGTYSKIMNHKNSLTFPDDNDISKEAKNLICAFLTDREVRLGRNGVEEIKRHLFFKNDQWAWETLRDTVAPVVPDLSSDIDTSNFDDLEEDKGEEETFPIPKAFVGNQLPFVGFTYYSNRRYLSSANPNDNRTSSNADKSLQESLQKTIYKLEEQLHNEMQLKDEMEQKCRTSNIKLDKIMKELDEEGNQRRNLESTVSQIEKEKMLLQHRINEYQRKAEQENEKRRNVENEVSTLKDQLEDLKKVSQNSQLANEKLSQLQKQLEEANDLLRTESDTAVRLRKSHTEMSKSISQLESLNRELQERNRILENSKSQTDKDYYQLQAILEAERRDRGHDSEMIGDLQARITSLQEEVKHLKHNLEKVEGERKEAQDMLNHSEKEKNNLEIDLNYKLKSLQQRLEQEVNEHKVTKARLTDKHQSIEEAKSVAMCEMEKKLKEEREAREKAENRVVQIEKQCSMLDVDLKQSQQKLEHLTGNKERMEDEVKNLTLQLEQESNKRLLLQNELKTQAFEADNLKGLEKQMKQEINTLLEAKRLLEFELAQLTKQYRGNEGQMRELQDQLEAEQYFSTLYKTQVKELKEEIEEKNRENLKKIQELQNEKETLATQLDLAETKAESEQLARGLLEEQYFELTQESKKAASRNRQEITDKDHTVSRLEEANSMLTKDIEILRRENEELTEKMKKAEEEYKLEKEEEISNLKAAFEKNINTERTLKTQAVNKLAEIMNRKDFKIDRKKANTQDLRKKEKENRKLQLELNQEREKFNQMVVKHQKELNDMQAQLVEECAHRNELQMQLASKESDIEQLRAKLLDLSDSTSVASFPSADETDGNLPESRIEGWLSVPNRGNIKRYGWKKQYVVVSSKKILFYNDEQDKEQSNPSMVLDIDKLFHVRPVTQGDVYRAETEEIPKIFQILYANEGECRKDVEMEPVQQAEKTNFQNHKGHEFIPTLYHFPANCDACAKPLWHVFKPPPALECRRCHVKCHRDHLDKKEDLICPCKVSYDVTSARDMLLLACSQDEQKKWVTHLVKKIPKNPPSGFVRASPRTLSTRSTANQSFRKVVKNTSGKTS
# experimentalContext: at 0.1 µM
One number for each entry, in %.

Count: 8. Required value per item: inhibition.
1. Cc1cc(-c2ccco2)cc(C)c1/C=C/c1cncc(-c2nn[nH]n2)c1
2. COc1cccc(-n2ncc3c(N/N=C/c4ccncc4)ncnc32)c1
3. COc1cccc(COc2cc(-n3cnc4ccccc43)sc2C(N)=O)c1
4. CCn1c(-c2nonc2N)nc2c(C#CC(C)(C)O)ncc(OCC3CCNCC3)c21
5. NC(=O)c1sc(-n2cnc3cc(C(F)(F)F)ccc32)cc1OCc1ccccc1Br
6. COc1cc(C=NNc2ncnc3c2cnn3Cc2ccccc2)ccc1O
7. Nc1nonc1-c1nc2cnccc2n1C1CCCCC1
8. Fc1ccc(-c2ncn(C3CCNCC3)c2-c2ccnc(Oc3ccccc3)n2)cc1

Output line:
0.84
2.51
-0.06
1.94
0.41
1.47
31
0.65
